The values you see were collected from PubChem BioAssay AID1159580.

# normalized growth annotations
experiment: chemical genetic growth profiling, strain panel (AID 1159580);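 also: tested at 20 µM; growth read once vehicle control cultures reached saturation at 30 °C; 1 = growth at the plate median or of vehicle wells; lower values mean less growth of the strain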; settings: S. cerevisiae deletion strains, growth OD, locus YGL227W, strain vid30, stronger effect = lower value
Out of some 5,500 compounds screened, about 2,000 (36%) were called active. Not shown: some 18% with an inconclusive outcome. This is one part of the list.

compound	normalized growth
CC(=O)O[C@@H]1CC2C(C)(C)[C@H](O)C=C[C@]2(C)C2CC[C@]3(C)C(=CC(=O)O[C@H]3c3ccoc3)[C@@]21C (stereo not given in full)	0.989
CCOC(=O)NNc1nncc2ccccc12	1.02
CC(=O)O[C@@H]1CC2C(C)(C)C(=O)C=C[C@]2(C)C2CC[C@]3(C)C(=CC(=O)O[C@H]3c3ccoc3)[C@@]21C (stereo not given in full)	1.01
N[C@@H](CCC(=O)N[C@@H](CS)C(=O)NCC(=O)O)C(=O)O	0.992
CC(C)(C)NC[C@H](O)c1ccc(O)c(CO)c1	1.01
Cc1nc(N)cc(C[n+]2csc(CCO)c2C)n1	0.987
Cc1c(C)c2c(c(C)c1O)CCC(C)(CCCC(C)CCCC(C)CCCC(C)C)O2 (stereo not given)	0.977
CN(C)CCCN1c2ccccc2CCc2ccc(Cl)cc21	0.993
COC(=O)c1c(C)c2c(c(C)c1O)OC(=O)c1c(C)c(Cl)c(O)c(Cl)c1O2	0.969
O=P1(NCCCl)OCCCN1CCCl (stereo not given)	0.993
C=C1C[C@]23C[C@@]1(O)CC[C@H]2[C@@]12C=C[C@H](O)[C@@](C)(C(=O)O1)[C@H]2[C@@H]3C(=O)O	1.02
CCCc1cc(=O)[nH]c(=S)[nH]1	1.03
CN(C)CCCN1c2ccccc2Sc2ccc(C(F)(F)F)cc21	1.03
CN(C)C(=O)Oc1cccc([N+](C)(C)C)c1	0.992
N=C(N)N	0.991
